Readings of pIC50 for the listed compounds
target: UniProtKB P28564
Sequence (P28564 whole entry): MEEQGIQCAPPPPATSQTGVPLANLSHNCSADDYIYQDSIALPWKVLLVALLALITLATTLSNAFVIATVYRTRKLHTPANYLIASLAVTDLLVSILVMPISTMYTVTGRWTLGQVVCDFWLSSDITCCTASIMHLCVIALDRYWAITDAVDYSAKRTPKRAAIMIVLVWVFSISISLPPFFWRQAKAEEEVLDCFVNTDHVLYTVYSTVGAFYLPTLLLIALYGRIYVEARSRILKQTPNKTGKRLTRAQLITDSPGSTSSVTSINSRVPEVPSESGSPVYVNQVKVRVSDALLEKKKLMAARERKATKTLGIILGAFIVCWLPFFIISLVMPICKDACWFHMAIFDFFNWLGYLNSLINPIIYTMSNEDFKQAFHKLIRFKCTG
pIC50: −log10 of the molar value.
measure: pIC50

# structure smiles, result comparator, quantitative readout
measured = [
    ("Cc1[nH]c2ccccc2c1C1=CCNCC1", "=", 6.05),
    ("Cc1[nH]c2ccc(-c3ccccc3)cc2c1C1=CCNCC1", "=", 6.85),
    ("COc1ccc2[nH]cc(C3=CCNCC3)c2c1", "=", 8.22),
    ("Cc1[nH]c2ccc(-c3ccsc3)cc2c1C1=CCNCC1", "=", 7.92),
    ("Cc1[nH]c2ccc(F)cc2c1C1=CCNCC1", "=", 6.70),
    ("Cc1[nH]c2ccc(OS(=O)(=O)C(F)(F)F)cc2c1C1=CCNCC1", "=", 7.54),
    ("Cc1[nH]c2ccc(Br)cc2c1C1=CCNCC1", "=", 7.12),
    ("Cc1[nH]c2ccc([N+](=O)[O-])cc2c1C1=CCNCC1", "=", 6.24),
    ("C1=C(c2c(-c3ccccc3)[nH]c3ccccc23)CCNC1", "<", 6.00),
]

----------
Readings of IC50 for the listed molecules
target: 5-hydroxytryptamine receptor 6 (Homo sapiens, UniProt P50406); test: Displacement of [3H]LSD from human 5HT6 receptor expressed in CHO cell membranes after 1 hr by liquid scintillation counting analysis
Sequence (P50406 whole entry): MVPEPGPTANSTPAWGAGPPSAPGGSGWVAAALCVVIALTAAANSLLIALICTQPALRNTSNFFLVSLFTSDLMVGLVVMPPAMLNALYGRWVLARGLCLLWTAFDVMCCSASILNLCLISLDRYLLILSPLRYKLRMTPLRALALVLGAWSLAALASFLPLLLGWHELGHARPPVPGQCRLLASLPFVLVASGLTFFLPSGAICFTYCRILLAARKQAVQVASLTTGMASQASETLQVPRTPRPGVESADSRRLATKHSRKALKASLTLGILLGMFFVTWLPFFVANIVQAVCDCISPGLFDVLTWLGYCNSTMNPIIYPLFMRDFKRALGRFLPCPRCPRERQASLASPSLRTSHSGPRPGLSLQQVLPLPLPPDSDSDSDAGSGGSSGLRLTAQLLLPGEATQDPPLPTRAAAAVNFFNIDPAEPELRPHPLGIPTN

# structure smiles, IC50 / nM
records = [
    ("Cc1c(C2=CCNCC2)c2cc(Cl)ccc2n1S(=O)(=O)c1ccccc1", 2),
    ("Cc1[nH]c2ccc(NS(=O)(=O)c3ccccc3)cc2c1C1=CCNCC1", 29),
]

----------
target: UniProtKB P34969
Sequence (P34969 whole entry): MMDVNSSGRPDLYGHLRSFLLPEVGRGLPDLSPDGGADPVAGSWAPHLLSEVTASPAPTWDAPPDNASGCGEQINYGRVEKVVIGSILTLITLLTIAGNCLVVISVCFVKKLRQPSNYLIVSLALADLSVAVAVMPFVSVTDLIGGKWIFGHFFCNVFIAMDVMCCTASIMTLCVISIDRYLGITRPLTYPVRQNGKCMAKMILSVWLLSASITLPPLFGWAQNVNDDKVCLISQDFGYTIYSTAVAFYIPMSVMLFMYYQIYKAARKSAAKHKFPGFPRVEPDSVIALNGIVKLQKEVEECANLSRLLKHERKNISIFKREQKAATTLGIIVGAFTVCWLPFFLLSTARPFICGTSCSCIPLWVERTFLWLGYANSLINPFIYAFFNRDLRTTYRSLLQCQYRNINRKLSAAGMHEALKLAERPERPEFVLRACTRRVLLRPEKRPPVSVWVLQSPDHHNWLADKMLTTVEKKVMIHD
pIC50: −log10 of the molar value.
Assign Met to entries whose pIC50 meets or exceeds 6; assign Not met to the rest.

# structure smiles, qualitative label
rows = [
    ("Cc1[nH]c2ccc(-c3ccccc3)cc2c1C1=CCNCC1", "Not met"),
    ("Cc1[nH]c2ccc(OS(=O)(=O)C(F)(F)F)cc2c1C1=CCNCC1", "Not met"),
    ("Cc1[nH]c2ccccc2c1C1=CCNCC1", "Not met"),
    ("Cc1[nH]c2ccc(Br)cc2c1C1=CCNCC1", "Met"),
    ("Cc1[nH]c2ccc(F)cc2c1C1=CCNCC1", "Not met"),
    ("Cc1[nH]c2ccc([N+](=O)[O-])cc2c1C1=CCNCC1", "Not met"),
]

----------
Readings of pIC50 for the listed compounds
Target: 5-hydroxytryptamine receptor 1A (Rattus norvegicus, UniProt P19327)
Sequence (P19327 whole entry): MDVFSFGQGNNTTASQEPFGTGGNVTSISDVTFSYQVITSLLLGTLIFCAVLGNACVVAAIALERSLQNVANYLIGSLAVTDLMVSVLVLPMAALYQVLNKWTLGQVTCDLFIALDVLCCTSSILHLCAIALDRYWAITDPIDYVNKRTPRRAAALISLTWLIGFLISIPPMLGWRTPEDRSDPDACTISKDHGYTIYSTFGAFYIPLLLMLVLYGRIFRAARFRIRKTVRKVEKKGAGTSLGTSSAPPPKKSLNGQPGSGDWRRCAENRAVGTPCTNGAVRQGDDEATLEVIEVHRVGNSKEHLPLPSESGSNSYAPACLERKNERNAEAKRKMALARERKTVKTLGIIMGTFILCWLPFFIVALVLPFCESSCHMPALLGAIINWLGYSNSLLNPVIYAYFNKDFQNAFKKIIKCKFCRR
pIC50: −log10 of the molar value.

# structure smiles, pIC50
records = [
    ("Cc1[nH]c2ccc(-c3ccsc3)cc2c1C1=CCNCC1", "< 6.00"),
    ("Cc1[nH]c2ccc(OS(=O)(=O)C(F)(F)F)cc2c1C1=CCNCC1", "< 6.00"),
    ("Cc1[nH]c2ccc([N+](=O)[O-])cc2c1C1=CCNCC1", 6.05),
    ("Cc1[nH]c2ccccc2c1C1=CCNCC1", 5.24),
    ("C1=C(c2c(-c3ccccc3)[nH]c3ccccc23)CCNC1", "< 6.00"),
    ("Cc1[nH]c2ccc(Br)cc2c1C1=CCNCC1", 6.18),
    ("Cc1[nH]c2ccc(F)cc2c1C1=CCNCC1", "< 6.00"),
    ("Cc1[nH]c2ccc(-c3ccccc3)cc2c1C1=CCNCC1", "< 6.00"),
]

----------
target: 5-hydroxytryptamine receptor 2A (Homo sapiens)
Sequence (P28223 whole entry): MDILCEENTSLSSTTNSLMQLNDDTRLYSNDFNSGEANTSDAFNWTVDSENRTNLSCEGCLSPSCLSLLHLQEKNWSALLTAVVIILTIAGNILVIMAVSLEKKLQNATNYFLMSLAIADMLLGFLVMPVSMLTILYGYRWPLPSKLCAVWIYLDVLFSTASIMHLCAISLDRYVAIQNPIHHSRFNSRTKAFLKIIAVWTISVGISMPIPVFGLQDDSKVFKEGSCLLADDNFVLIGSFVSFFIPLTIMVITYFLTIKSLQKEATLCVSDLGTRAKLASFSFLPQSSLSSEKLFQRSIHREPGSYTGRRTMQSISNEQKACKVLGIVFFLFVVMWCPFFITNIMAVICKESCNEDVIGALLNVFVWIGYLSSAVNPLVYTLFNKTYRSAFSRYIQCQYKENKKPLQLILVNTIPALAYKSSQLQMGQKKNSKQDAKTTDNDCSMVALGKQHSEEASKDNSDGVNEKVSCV
pIC50: −log10 of the molar value.

# structure smiles, pIC50
measured = [
    ("Cc1[nH]c2ccc(-c3ccccc3)cc2c1C1=CCNCC1", "< 6.00"),
    ("Cc1[nH]c2ccc(-c3ccsc3)cc2c1C1=CCNCC1", "< 6.00"),
    ("Cc1[nH]c2ccc(OS(=O)(=O)C(F)(F)F)cc2c1C1=CCNCC1", "< 6.00"),
]

----------
Target: 5-hydroxytryptamine receptor 2C (Homo sapiens, UniProt P28335)
Sequence (P28335 whole entry): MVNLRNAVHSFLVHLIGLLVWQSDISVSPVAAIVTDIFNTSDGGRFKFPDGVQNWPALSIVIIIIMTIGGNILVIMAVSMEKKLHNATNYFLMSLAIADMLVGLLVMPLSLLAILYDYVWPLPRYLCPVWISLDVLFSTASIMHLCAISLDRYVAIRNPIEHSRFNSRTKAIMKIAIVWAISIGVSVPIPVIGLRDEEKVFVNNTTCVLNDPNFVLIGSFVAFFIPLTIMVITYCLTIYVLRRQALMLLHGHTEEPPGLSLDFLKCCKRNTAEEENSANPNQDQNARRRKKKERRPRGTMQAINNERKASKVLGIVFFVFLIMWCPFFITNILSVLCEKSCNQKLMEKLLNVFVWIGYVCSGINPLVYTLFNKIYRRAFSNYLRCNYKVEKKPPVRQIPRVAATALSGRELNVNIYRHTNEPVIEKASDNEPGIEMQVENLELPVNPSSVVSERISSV
Readings of IC50 for the listed molecules

# structure smiles, IC50
rows = [
    ("Cc1[nH]c2ccc(-c3ccccc3)cc2c1C1=CCNCC1", "> 1000 nM"),
    ("Cc1[nH]c2ccc(-c3ccsc3)cc2c1C1=CCNCC1", "> 1000 nM"),
    ("Cc1[nH]c2ccc([N+](=O)[O-])cc2c1C1=CCNCC1", "> 1000 nM"),
]

----------
target: 5-hydroxytryptamine receptor 6 (Homo sapiens); experiment: Displacement of [3H]LSD from human 5HT6 receptor expressed in HEK cell membranes after 1 hr by liquid scintillation counting analysis; parameters: species or system HEK293
pIC50: −log10 of the molar value.
Assign YES to entries whose pIC50 meets or exceeds 7; assign NO to the rest.

# structure smiles, qualitative label
records = [
    ("CSc1ccc2[nH]c(C)c(C3=CCNCC3)c2c1", "YES"),
    ("Cc1[nH]c2ccc(Br)cc2c1C1=CCNCC1", "YES"),
    ("Cc1[nH]c2ccc(F)cc2c1C1=CCNCC1", "YES"),
    ("Cc1[nH]c2ccc(-c3ccsc3)cc2c1C1=CCNCC1", "NO"),
]

The reported numbers originate from ChEMBL document CHEMBL2375225.
